FYI, the data here is from patent US10214508B2.

target_under_test: human M1 receptor (hCHRM1) (Homo sapiens, UniProt P11229)
Construct: expressed in transfected cells
Sequence (P11229 whole entry): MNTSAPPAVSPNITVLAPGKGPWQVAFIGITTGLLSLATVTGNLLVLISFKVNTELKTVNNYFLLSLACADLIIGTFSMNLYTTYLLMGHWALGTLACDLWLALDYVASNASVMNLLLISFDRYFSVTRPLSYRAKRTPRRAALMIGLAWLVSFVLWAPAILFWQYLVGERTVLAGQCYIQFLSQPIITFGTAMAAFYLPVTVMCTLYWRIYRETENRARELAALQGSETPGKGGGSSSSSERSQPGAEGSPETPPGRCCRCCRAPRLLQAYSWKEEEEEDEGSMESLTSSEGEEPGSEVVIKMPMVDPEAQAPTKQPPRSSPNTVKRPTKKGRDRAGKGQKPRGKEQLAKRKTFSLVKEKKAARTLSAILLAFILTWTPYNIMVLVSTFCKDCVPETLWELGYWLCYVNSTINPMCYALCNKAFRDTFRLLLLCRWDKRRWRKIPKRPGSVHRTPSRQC
experimental_protocol: Measurement of M1 receptor positive allosteric modulator (M1PAM) activity, calcium fluorescence (FLIPRtetra)
Type: cell-based
conditions_used: 10 μM test compound with acetylcholine at EC20 (final 0.6-0.8 nM); 100% = acetylcholine 1 μM, 0% = DMSO; CHO-K1 cells expressing hCHRM1
Counter-ions that a name gives are not always drawn.
measured_property: activity (%) at 10 μM
Numeric answer only, unit % assumed.

Ask: State the recorded activity (%) at 10 μM for this entry: Cc1nc(C(=O)N[C@H]2CCC[C@@H]2O)cc(Cc2ccc(Cl)nc2)c1C [Example 116]
Reply: 104

Ask: State the recorded activity (%) at 10 μM for this entry: COc1cc(Cc2ccc(-n3cccn3)cc2)cc(C(=O)N[C@H]2CCCC[C@@H]2O)n1 [Example 69]
Reply: 100

Ask: State the recorded activity (%) at 10 μM for this entry: COc1ccc(Cc2cc(C(=O)N[C@H]3COCC[C@@H]3O)nc(C)c2C)cc1 [Example 83]
Reply: 103

Ask: State the recorded activity (%) at 10 μM for this entry: COc1ccc(Cc2cc(C(=O)N[C@H]3COCC[C@@H]3O)nc(C)c2Cl)cc1 [Example 102]
Reply: 104

Ask: State the recorded activity (%) at 10 μM for this entry: O=C(N[C@H]1CCCC[C@@H]1O)c1cc(Cc2ccc(-n3cccn3)cc2)c(Cl)cn1 [Example 6]
Reply: 108

Ask: State the recorded activity (%) at 10 μM for this entry: O=C(N[C@H]1CCC[C@@H]1O)c1cc(Cc2ccc(-n3cccn3)cc2F)c(Cl)cn1 [Example 53]
Reply: 93

Ask: State the recorded activity (%) at 10 μM for this entry: Cc1cnc(C(=O)N[C@H]2CCC[C@@H]2O)cc1Cc1ccc(-c2cn(C)nc2C)cc1 [Example 14, Dihydrochloride]
Reply: 100

Ask: State the recorded activity (%) at 10 μM for this entry: Cc1nc(C(=O)N[C@H]2CCCC[C@@H]2O)cc(Cc2ccc(Cl)nc2)c1Cl [Example 103]
Reply: 109

Ask: State the recorded activity (%) at 10 μM for this entry: Cc1nc(C(=O)N[C@H]2COCC[C@@H]2O)cc(Cc2ccc(-c3ccn(C)n3)cc2)c1C [Example 82]
Reply: 103

Ask: State the recorded activity (%) at 10 μM for this entry: COc1cnc(C(=O)N[C@H]2CCCC[C@@H]2O)cc1Cc1ccc(Cl)nc1 [Example 61]
Reply: 108

Ask: State the recorded activity (%) at 10 μM for this entry: COc1nc(C(=O)N[C@H]2CCCC[C@@H]2O)cc(Cc2ccc(-n3cccn3)cc2)c1C [Example 91]
Reply: 98

Ask: State the recorded activity (%) at 10 μM for this entry: COc1cnc(C(=O)N[C@H]2CCCC[C@@H]2O)cc1Cc1ccc(-n2cccn2)cc1 [Example 63]
Reply: 94

Ask: State the recorded activity (%) at 10 μM for this entry: CCc1cnc(C(=O)N[C@H]2CCCC[C@@H]2O)cc1Cc1ccc(-n2cccn2)cc1 [Example 43]
Reply: 92

Ask: State the recorded activity (%) at 10 μM for this entry: Cc1nc(C(=O)N[C@H]2CCCC[C@@H]2O)cc(Cc2ccc(Cl)nc2)c1C [Example 73]
Reply: 94

Ask: State the recorded activity (%) at 10 μM for this entry: COc1nc(C(=O)N[C@H]2COCC[C@@H]2O)cc(Cc2ccc(-n3cccn3)cc2)c1C [Example 92]
Reply: 99

Ask: State the recorded activity (%) at 10 μM for this entry: COc1cnc(C(=O)N[C@H]2CCC[C@@H]2O)cc1Cc1ccc(-n2cccn2)cc1 [Example 60]
Reply: 87

Ask: State the recorded activity (%) at 10 μM for this entry: Cc1cnc(C(=O)N[C@H]2CCC[C@@H]2O)cc1Cc1ccc(-n2cccn2)cc1F [Example 13]
Reply: 92
